This collection of values is drawn from the kinase profiling compilation of Christmann-Franck et al. (2016).

Subject of test: UniProt:P07949
Sequence (P07949 whole entry, looked up): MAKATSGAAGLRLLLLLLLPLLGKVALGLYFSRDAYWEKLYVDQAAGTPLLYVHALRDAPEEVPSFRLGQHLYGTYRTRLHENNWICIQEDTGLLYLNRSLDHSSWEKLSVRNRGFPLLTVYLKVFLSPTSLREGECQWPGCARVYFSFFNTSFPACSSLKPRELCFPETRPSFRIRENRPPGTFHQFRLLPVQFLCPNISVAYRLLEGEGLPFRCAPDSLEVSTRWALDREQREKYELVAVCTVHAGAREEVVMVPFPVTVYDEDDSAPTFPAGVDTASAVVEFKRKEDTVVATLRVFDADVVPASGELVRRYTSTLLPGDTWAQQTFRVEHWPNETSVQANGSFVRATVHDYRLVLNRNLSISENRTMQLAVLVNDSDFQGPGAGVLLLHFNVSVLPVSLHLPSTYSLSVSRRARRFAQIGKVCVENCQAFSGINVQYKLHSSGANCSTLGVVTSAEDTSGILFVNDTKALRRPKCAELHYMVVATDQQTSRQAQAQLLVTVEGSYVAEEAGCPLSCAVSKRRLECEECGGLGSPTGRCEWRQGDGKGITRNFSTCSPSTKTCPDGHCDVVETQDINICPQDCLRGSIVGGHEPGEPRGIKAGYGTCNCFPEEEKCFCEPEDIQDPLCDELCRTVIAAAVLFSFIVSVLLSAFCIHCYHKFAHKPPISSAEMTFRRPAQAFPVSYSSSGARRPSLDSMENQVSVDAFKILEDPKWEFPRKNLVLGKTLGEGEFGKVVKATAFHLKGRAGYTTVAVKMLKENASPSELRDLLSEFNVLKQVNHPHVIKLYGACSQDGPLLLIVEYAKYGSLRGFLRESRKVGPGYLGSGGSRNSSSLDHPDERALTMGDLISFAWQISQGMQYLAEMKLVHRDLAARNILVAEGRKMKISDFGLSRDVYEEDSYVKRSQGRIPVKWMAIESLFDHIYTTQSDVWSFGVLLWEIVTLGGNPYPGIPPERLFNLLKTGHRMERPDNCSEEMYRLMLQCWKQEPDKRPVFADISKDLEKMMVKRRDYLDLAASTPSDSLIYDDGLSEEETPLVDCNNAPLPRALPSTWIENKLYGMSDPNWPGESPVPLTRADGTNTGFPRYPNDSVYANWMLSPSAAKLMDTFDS
Test method notes: radiometric filter-binding kinase assay, Kinase HotSpot
Condition context: compound 0.5 µM; ATP 10 µM
Param threshold (80%) applies to residual activity; output t when value >= threshold, f when value < threshold.

[
  {
    "Compound": "CNC(=O)c1cc(Oc2ccc(NC(=O)Nc3ccc(Cl)c(C(F)(F)F)c3)cc2)ccn1",
    "Subject of test": "UniProt:P07949",
    "Class": "f"
  },
  {
    "Compound": "COc1ccc(COc2ccc(Cc3cnc(N)nc3N)cc2OC)cc1",
    "Subject of test": "UniProt:P07949",
    "Class": "t"
  },
  {
    "Compound": "CCOC(=O)c1c(C)[nH]c(/C=C2\\C(=O)Nc3ccccc32)c1C",
    "Subject of test": "UniProt:P07949",
    "Class": "f"
  },
  {
    "Compound": "Cc1[nH]c(/C=C2\\C(=O)Nc3ccc(S(=O)(=O)N(C)c4cccc(Cl)c4)cc32)c(C)c1C(=O)N1CCN(C)CC1",
    "Subject of test": "UniProt:P07949",
    "Class": "f"
  },
  {
    "Compound": "O=C1NC(=O)c2c1c1c3ccccc3n3c1c1c2c2ccccc2n1C1CCC3O1",
    "Subject of test": "UniProt:P07949",
    "Class": "f"
  },
  {
    "Compound": "O=S(=O)(c1cccc2cnccc12)N1CCCNCC1",
    "Subject of test": "UniProt:P07949",
    "Class": "t"
  },
  {
    "Compound": "Cc1ccc(Nc2nccc(N(C)c3ccc4c(C)n(C)nc4c3)n2)cc1S(N)(=O)=O",
    "Subject of test": "UniProt:P07949",
    "Class": "f"
  },
  {
    "Compound": "CCCC(=O)Oc1ccc2[nH]c(C(=O)c3cc4ccccc4[nH]3)cc2c1",
    "Subject of test": "UniProt:P07949",
    "Class": "t"
  },
  {
    "Compound": "O=C1NC(=O)/C(=C/c2ccc3c(c2)OC(F)(F)O3)S1",
    "Subject of test": "UniProt:P07949",
    "Class": "t"
  },
  {
    "Compound": "CO[C@H]1CC2CC[C@@H](C)[C@@](O)(O2)C(=O)C(=O)N2CCCC[C@H]2C(=O)OC([C@H](C)C[C@@H]2CC[C@@H](O)[C@H](OC)C2)CC(=O)[C@H](C)/C=C(\\C)[C@@H](O)[C@@H](OC)C(=O)[C@H](C)C[C@H](C)/C=C/C=C/C=C/1C (stereo not given in full)",
    "Subject of test": "UniProt:P07949",
    "Class": "t"
  },
  {
    "Compound": "CCN(CC)CCNC(=O)c1c(C)[nH]c(/C=C2\\C(=O)Nc3ccc(F)cc32)c1C",
    "Subject of test": "UniProt:P07949",
    "Class": "f"
  },
  {
    "Compound": "Oc1cccc(-c2nc(N3CCOCC3)c3oc4ncccc4c3n2)c1",
    "Subject of test": "UniProt:P07949",
    "Class": "t"
  },
  {
    "Compound": "CC[n+]1c(/C=C/N(C)c2ccccc2)n(-c2ccccc2)c2ccc(-c3nc4ccccc4s3)cc21",
    "Subject of test": "UniProt:P07949",
    "Class": "t"
  },
  {
    "Compound": "CCN(CC)C(=O)c1ccc(Nc2nc(OCC3CCCCC3)c3nc[nH]c3n2)cc1",
    "Subject of test": "UniProt:P07949",
    "Class": "f"
  },
  {
    "Compound": "CC(C)N(CCC(=O)c1ccc2ccccc2c1)Cc1ccccc1",
    "Subject of test": "UniProt:P07949",
    "Class": "t"
  },
  {
    "Compound": "CC#CC(=O)Nc1cc2c(Nc3ccc(F)c(Cl)c3)ncnc2cn1",
    "Subject of test": "UniProt:P07949",
    "Class": "t"
  },
  {
    "Compound": "N#C/C(=C(/N)Sc1ccc(N)cc1)c1ccccc1C(F)(F)F",
    "Subject of test": "UniProt:P07949",
    "Class": "t"
  },
  {
    "Compound": "Nc1ccc2ncnc(NCCc3ccc(Oc4ccccc4)cc3)c2c1",
    "Subject of test": "UniProt:P07949",
    "Class": "t"
  },
  {
    "Compound": "Cc1ccc(NC2=CC(=O)c3sc(C)nc3C2=O)cc1",
    "Subject of test": "UniProt:P07949",
    "Class": "t"
  },
  {
    "Compound": "Nc1cccc(-c2cc3c(Oc4cccc(O)c4)ncnc3[nH]2)c1",
    "Subject of test": "UniProt:P07949",
    "Class": "f"
  },
  {
    "Compound": "CC(=O)c1ccc(N2CCOCC2)cc1O",
    "Subject of test": "UniProt:P07949",
    "Class": "t"
  },
  {
    "Compound": "O=c1cc(N2CCOCC2)oc2c1ccc1ccccc12",
    "Subject of test": "UniProt:P07949",
    "Class": "t"
  },
  {
    "Compound": "Cc1ccc(S(=O)(=O)/C=C/C#N)cc1",
    "Subject of test": "UniProt:P07949",
    "Class": "t"
  },
  {
    "Compound": "Nc1ncnc2c1c(-c1ccc(Oc3ccccc3)cc1)cn2C1CCCC1",
    "Subject of test": "UniProt:P07949",
    "Class": "f"
  },
  {
    "Compound": "COc1ccc2c(c[n+](C)c3c4cc5c(cc4ccc23)OCO5)c1OC",
    "Subject of test": "UniProt:P07949",
    "Class": "t"
  },
  {
    "Compound": "CCC(=O)Nc1ccc2ncnc(Nc3cccc(Br)c3)c2c1",
    "Subject of test": "UniProt:P07949",
    "Class": "t"
  }
]
